Test system: HepG2-TP53BP1-CLTA
Experiment: phenotypically active (imaging signature differs from DMSO and reproducible) at any of 0.3-9 uM (binary (1 = active, 0 = inactive)); higher = active
Conditions: treatment time: 24 h
parameter: phenotypically active
Give bare numbers.

{"compound": "CC(=O)[C@H]1CC[C@H]2[C@@H]3CCC4=CC(=O)CC[C@]4(C)[C@H]3CC[C@]12C", "parameter": "phenotypically active", "measured": 0}
{"compound": "C[C@@H]1C[C@H]2[C@@H]3C[C@H](F)C4=CC(=O)C=C[C@]4(C)[C@@]3(F)[C@@H](O)C[C@]2(C)[C@@]1(O)C(=O)COC(=O)C(C)(C)C [flumethasone pivalate]", "parameter": "phenotypically active", "measured": 0}
{"compound": "CC(C)(C)NCC(O)c1ccc(O)c(CO)c1 (stereo not drawn)", "parameter": "phenotypically active", "measured": 0}

Hey, quick one: what's phenotypically active for each of these?
1. Cc1ccc(Nc2nnc(-c3ccc([N+](=O)[O-])cc3)o2)cc1Cl
2. CCCCCCCCCCCCC/C=C/[C@@H](O)[C@H](CO)N(C)C
3. C=CC(=O)Nc1cccc(Nc2nc(Nc3ccc(OCCOC)cc3)ncc2F)c1
4. Cc1n[nH]c2ccc(-c3cncc(OC[C@@H](N)Cc4ccccc4)c3)cc12
5. CCC(=O)N1CCN(c2ccc(-n3c(=O)ccc4cnc5ccc(-c6cnc7ccccc7c6)cc5c43)cc2C(F)(F)F)CC1

1. 0
2. 1
3. 1
4. 1
5. 1

----------
System: HepG2-TP53BP1-CLTA
Experiment: phenotypically active (imaging signature differs from DMSO and reproducible) at any of 0.3-9 uM (binary (1 = active, 0 = inactive)); higher = active
Details: treatment time: 24 h
Hi! Could you answer with just one of these? active, inactive

Consider the following illustrative entries.
{"molecule": "Cc1cc2c(s1)Nc1ccccc1N=C2N1CCN(C)CC1 [Olanzapine]", "cat": "inactive"}
{"molecule": "NS(=O)(=O)Cc1noc2ccccc12 [zonisamide]", "cat": "inactive"}
{"molecule": "COCCOC(=O)C1=C(C)NC(C)=C(C(=O)OC(C)C)C1c1cccc([N+](=O)[O-])c1 (centres undefined) [nimodipine]", "cat": "inactive"}
{"molecule": "Cc1cccc(C)c1OCC(=O)N[C@@H](Cc1ccccc1)[C@@H](O)C[C@H](Cc1ccccc1)NC(=O)[C@H](C(C)C)N1CCCNC1=O [lopinavir]", "cat": "inactive"}
{"molecule": "C[N+]1(C)[C@@H]2C[C@@H](OC(=O)C(O)(c3cccs3)c3cccs3)C[C@H]1[C@@H]1O[C@@H]12 [Tiotropium bromide]", "cat": "inactive"}
{"molecule": "CN(C)CCOC(c1ccccc1)c1ccccc1 [diphenhydramine]", "cat": "inactive"}
{"molecule": "CC#CC(=O)N1CCC[C@H]1c1nc(-c2ccc(C(=O)Nc3ccccn3)cc2)c2c(N)nccn12 [acalabrutinib]", "cat": "inactive"}
{"molecule": "CCCCCC1CC1CC1CC1CCCCCCCC(=O)O (centres undefined)", "cat": "inactive"}

We now examine a further molecule.
Assay result, entry Fc1ccc([C@@H]2CCNC[C@H]2COc2ccc3c(c2)OCO3)cc1 [paroxetine] — outcome?
active

----------
Tested on: WPMY1-GM130-SQSTM1
Experiment: phenotypically active (imaging signature differs from DMSO and reproducible) at any of 0.3-9 uM (binary (1 = active, 0 = inactive)); higher = active
Conditions: treatment time: 24 h
Counter-ions that a name gives are not always drawn.
Your response should consist of one outcome taken from active, inactive

{"compound": "COc1cc2nc(N3CCN(C(=O)C4COc5ccccc5O4)CC3)nc(N)c2cc1OC (centres undefined)", "cat": "active"}

Recorded test outcome, item O=C(CCCN1CCC(O)(c2ccc(Cl)cc2)CC1)c1ccc(F)cc1
active

Entry Nc1ncnc2c1c(-c1ccc(Oc3ccccc3)cc1)nn2C1CCCC1 : call = ?
inactive

Field: outcome | Entry: C[C@H]1COCCN1c1cc(C2(S(=O)(=O)C3CC3)CC2)nc(-c2ccc(NC(=S)NCCO)cc2)n1
active

# fetch the recorded call for C=CC(=O)Nc1cccc(Nc2nc(Nc3ccc(OCCOC)cc3)ncc2F)c1 here
active

Each compound tested received a call. Report the one for CCCCCCCCCCCCCCCCCCc1ccc(C(=O)/C=C/C(=O)O)cc1 .
inactive

Entry S=C(S)N1CCCC1 [Pyrrolidinedithiocarbamate ammonium] : call = ?
active

Assay result, entry CCCCC(=O)N(Cc1ccc(-c2ccccc2-c2nnn[nH]2)cc1)[C@H](C(=O)O)C(C)C — outcome?
inactive

Per the records of this test, what outcome belongs to CN(CCOc1ccc(C[C@H](Nc2ccccc2C(=O)c2ccccc2)C(=O)O)cc1)c1ccccn1 [GW 1929 hydrochloride] ?
inactive
